- SUBJECT OF TEST: Protein deacetylase HDAC6 (Homo sapiens)
- PROCEDURE TEXT: Inhibition of N-terminal GST-tagged full length human HDAC6 expressed in baculovirus expression system in Sf9 cells using AMC-labeled RHKKAc as substrate after 2 hrs by fluorescence assay
MEASUREMENT TYPE: IC50 (nM)
Could you give me the number in nM? Just the number is fine.

Suppose we examine the molecule `COc1ccc(-c2cc(-c3ccoc3)c(C(=O)NCc3ccc(C(=O)NO)cc3)[nH]2)cc1` ; what IC50 value has been reported? 2

###

- SUBJECT OF TEST: UniProt:O15379
- Sequence (O15379 whole entry): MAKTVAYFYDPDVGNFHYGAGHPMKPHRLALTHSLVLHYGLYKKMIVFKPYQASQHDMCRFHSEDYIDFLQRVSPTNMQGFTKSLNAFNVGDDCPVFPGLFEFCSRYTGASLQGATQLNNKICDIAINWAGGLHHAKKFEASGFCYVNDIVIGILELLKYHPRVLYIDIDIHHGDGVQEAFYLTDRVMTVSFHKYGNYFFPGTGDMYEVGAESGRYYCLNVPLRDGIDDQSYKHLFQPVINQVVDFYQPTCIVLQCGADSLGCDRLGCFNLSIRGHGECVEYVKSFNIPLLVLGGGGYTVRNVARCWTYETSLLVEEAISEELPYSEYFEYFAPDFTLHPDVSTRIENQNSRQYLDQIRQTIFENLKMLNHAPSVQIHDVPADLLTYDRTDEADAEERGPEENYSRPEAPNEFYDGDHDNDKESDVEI
- PROCEDURE TEXT: Inhibition of human HDAC3 after 15 mins by trypsin-coupled fluorescence assay
MEASUREMENT TYPE: IC50 (µM)
Could you give me the number in µM? Just the number is fine.

Suppose we examine the compound `O=C(NO)c1ccc(CN(CCO)C(=O)Cc2ccccc2)cc1` ; what IC50 value has been reported? 2.1

###

- SUBJECT OF TEST: Histone deacetylase 11 (Homo sapiens)
- Sequence (Q96DB2 whole entry): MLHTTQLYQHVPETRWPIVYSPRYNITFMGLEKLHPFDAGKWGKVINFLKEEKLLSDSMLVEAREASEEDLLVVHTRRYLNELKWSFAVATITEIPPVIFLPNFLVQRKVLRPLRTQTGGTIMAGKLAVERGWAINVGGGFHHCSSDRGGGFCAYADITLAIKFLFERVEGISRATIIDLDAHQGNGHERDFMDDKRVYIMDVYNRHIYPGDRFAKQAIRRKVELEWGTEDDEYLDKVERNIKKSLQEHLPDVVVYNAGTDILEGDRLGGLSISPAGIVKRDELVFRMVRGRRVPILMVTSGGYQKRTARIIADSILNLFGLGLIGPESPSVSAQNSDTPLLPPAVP
- PROCEDURE TEXT: Inhibition of HDAC11 (unknown origin)
So I've got a bunch of compounds here, and I need their pIC50 values.
API: returns pIC50 as number; meaning -log10 of concentration in mol/L.

Fill in the recorded pIC50 for this compound, with Histone deacetylase 11 (Homo sapiens) as test system: `O=C(NO)c1ccc(Cn2c3c(c4ccccc42)S(=O)(=O)CC3)cc1` 4.77

Fill in the recorded pIC50 for this compound, with Histone deacetylase 11 (Homo sapiens) as test system: `Cc1nc2ccccc2n1Cc1ccc(C(=O)NO)cc1F` 4.89

Fill in the recorded pIC50 for this compound, with Histone deacetylase 11 (Homo sapiens) as test system: `O=C(NO)c1ccc(CN2c3ccccc3S(=O)(=O)C[C@H]3CCCC[C@H]32)cc1` 5.62

###

- SUBJECT OF TEST: Protein deacetylase HDAC6 (Homo sapiens, UniProt Q9UBN7)
- PROCEDURE TEXT: Inhibition of HDAC6 (unknown origin) by fluorescence assay
MEASUREMENT TYPE: IC50 (µM)
Could you give me the number in µM? Just the number is fine.

Fill in the recorded IC50 for this compound, with Protein deacetylase HDAC6 (Homo sapiens, UniProt Q9UBN7) as test system: `O=C(NO)c1cccc(-c2csc(CSc3ccccc3)n2)c1` 14

###

- SUBJECT OF TEST: Protein deacetylase HDAC6 (Homo sapiens)
- Sequence (Q9UBN7 whole entry): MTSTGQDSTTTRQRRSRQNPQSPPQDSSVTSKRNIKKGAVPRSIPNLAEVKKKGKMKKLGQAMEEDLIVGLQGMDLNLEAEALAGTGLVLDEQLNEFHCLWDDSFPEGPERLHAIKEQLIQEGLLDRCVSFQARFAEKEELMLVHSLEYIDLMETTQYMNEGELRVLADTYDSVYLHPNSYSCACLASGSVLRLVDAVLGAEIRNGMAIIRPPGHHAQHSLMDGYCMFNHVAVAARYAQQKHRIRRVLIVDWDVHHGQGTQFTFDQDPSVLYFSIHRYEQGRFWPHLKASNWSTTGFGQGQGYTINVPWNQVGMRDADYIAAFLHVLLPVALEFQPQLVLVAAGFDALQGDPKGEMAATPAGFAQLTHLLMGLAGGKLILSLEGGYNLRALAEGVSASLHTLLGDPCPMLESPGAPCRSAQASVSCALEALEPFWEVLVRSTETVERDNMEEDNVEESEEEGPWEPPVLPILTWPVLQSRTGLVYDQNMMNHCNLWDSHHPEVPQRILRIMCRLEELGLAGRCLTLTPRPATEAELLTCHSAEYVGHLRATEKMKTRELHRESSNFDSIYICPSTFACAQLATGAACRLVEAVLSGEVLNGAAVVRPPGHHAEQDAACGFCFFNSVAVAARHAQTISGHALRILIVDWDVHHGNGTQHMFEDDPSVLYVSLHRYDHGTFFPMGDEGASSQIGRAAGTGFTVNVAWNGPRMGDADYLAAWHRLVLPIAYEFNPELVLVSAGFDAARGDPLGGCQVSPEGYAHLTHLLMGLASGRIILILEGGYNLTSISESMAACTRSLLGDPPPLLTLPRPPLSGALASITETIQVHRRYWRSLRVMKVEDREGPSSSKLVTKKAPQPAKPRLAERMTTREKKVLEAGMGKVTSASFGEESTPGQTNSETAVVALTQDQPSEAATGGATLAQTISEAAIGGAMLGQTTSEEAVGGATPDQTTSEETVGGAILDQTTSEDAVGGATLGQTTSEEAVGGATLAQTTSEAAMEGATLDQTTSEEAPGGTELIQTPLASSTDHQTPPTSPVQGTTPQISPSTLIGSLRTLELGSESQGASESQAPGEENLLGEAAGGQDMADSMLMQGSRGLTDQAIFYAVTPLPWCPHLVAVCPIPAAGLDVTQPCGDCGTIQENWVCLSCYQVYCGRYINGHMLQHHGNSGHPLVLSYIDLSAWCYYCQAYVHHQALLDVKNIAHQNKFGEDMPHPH
- PROCEDURE TEXT: Inhibition of HDAC6 (unknown origin)
MEASUREMENT TYPE: IC50 (nM)
Could you give me the number in nM? Just the number is fine.

Suppose we examine the compound `O=C(NO)c1ccc(CN2c3ccccc3S(=O)(=O)C[C@H]3CCCC[C@H]32)cc1` ; what IC50 value has been reported? 8

Suppose we examine the compound `O=C(NO)c1ccc(Cn2c3c(c4ccccc42)S(=O)(=O)CC3)cc1` ; what IC50 value has been reported? 8

Suppose we examine the compound `Cc1nc2ccccc2n1Cc1ccc(C(=O)NO)cc1F` ; what IC50 value has been reported? 0.8

###

So I've got a bunch of compounds here, and I need their pIC50 values.
- SUBJECT OF TEST: Histone deacetylase 4 (Homo sapiens, UniProt P56524)
- Sequence (P56524 whole entry): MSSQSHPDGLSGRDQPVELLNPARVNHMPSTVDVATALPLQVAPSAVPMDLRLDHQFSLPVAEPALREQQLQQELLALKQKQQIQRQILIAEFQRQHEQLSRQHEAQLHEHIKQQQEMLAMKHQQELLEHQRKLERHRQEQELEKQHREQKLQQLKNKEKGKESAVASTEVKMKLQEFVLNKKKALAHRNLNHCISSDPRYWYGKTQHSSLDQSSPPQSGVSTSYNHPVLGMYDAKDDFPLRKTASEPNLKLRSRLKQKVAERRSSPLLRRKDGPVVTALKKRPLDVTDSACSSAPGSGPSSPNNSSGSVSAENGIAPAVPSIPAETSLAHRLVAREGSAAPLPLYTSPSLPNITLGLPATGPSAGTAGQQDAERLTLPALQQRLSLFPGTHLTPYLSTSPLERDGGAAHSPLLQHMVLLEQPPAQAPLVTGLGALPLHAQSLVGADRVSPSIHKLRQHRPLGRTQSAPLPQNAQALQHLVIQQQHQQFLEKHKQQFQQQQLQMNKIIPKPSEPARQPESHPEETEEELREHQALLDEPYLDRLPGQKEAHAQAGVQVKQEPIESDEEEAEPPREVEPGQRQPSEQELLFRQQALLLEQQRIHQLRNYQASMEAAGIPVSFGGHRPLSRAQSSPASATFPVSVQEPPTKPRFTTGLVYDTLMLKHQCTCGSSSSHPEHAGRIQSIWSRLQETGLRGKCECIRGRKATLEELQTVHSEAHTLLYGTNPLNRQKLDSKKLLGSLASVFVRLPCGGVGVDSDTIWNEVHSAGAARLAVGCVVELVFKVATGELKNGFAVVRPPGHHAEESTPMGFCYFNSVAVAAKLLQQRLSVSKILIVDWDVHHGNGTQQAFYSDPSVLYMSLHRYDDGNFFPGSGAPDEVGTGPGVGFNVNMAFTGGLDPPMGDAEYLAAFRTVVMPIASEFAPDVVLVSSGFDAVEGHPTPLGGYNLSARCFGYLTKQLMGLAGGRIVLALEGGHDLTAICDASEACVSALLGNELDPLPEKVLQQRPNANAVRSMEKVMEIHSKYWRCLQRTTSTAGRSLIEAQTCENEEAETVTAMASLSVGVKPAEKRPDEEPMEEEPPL
- PROCEDURE TEXT: Inhibition of HDAC4 (unknown origin)
API: returns pIC50 as number; meaning -log10 of concentration in mol/L.

Suppose we examine the compound `O=C(NO)c1ccc(Cn2c3c(c4ccccc42)S(=O)(=O)CC3)cc1` ; what pIC50 value has been reported? 6.22

Suppose we examine the compound `Cc1nc2ccccc2n1Cc1ccc(C(=O)NO)cc1F` ; what pIC50 value has been reported? 6.30
